Test system: T47D
Test: Antiproliferative activity against human T47D cells expressing BCA2 and estrogen receptor after 72 hrs by MTT assay
Format: functional, cell-based
Binary label based on IC50 with cut-off 200 nM: below gives class 1, not below gives class 0.

Query string: Bench note: check whether "S=C(SSC1CCCCC1)N1CCCCC1" shows IC50 below 200 nM
Result string: class 0

Query string: For "CN1CCN(C(=S)SSC(=S)N2CCN(C)CC2)CC1" , is the recorded IC50 below the cut-off of 200 nM?
Result string: class 0

Query string: is_below(IC50, 200 nM) for C1CN(SSN2CCOCC2)CCO1 [DITHIODIMORPHOLINE] ?
Result string: class 0

Query string: Lab note: confirm whether the reported IC50 for this compound is below 200 nM, equality not counting. compound: "CCN(CC)C(=S)SSC1CCCCC1"
Result string: class 1

Query string: In plain terms, does "CCN(CC)C(=S)SSC(=S)N(CC)CC" come in under 200 nM for IC50?
Result string: class 1

Query string: Dear colleague, could you confirm whether IC50 of "CCN(CC)C(=S)SSC(C)C" falls below 200 nM? Thanks.
Result string: class 0

Query string: Say whether its IC50 is strictly beneath 200 nM. Entry: CCCCCCSSC(=S)N(CC)CC [DIETHYLCARBAMO(DITHIOPEROXO)THIOATE]
Result string: class 0

Query string: Does the reported IC50 of the following compound sit strictly below 200 nM? S=C(SSC(=S)N1CCCCC1)N1CCCCC1 [BIS(PIPERIDINYLTHIOCARBONYL)DISULFIDE]
Result string: class 0

Query string: Is the reported IC50 for "S=C(SSC1CCCCC1)N1CCCC1" strictly below 200 nM?
Result string: class 0

Query string: Field: below-cutoff. Rule: recorded IC50 strictly less than 200 nM. Subject: "CCCCSSC(=S)N(CC)CC"
Result string: class 1

Query string: Consider "CCN(CC)C(=S)SSc1ccc(C(=O)O)cc1" . Does its IC50 lie strictly below 200 nM?
Result string: class 1

Query string: Find out if reported IC50 for S=C(SSC(=S)N1CCCC1)N1CCCC1 [BIS(PYRROLIDINYLTHIOCARBONYL)DISULFIDE] is less than 200 nM
Result string: class 0

Query string: A record lists "CCN(CC)C(=S)SSCCO" . Is its IC50 below 200 nM?
Result string: class 0

Query string: Quick check: IC50 of "CCCCSSC(=S)N1CCCCC1" under 200 nM?
Result string: class 0

----------
System: K562
Experiment: Percentage of ALDH+ cells in human K562 cells at 15 uM after 45 mins by flow cytometry based method
Details: K562, 0.75 h
Tick yes (1) if ALDH+ cells (%) at 15 µM is 20% or greater. Tick no (0) if ALDH+ cells (%) at 15 µM is less than 20%.

Query string: Is reported ALDH+ cells (%) at 15 µM greater than or equal to 20% here: "Cc1cc(C)n2c1C=C1C=CC(CCC(=O)NCC=O)=[N+]1[B-]2(F)F"
Result string: yes (1)

Query string: I'd appreciate it if you could say whether "CCN(CC)C(=S)SSC(=S)N(CC)CC" has ALDH+ cells (%) at 15 µM at least equal to 20%.
Result string: no (0)

Query string: Reported ALDH+ cells (%) at 15 µM reaches at least 20% for CCCCCCSSC(=S)N(CC)CC [DIETHYLCARBAMO(DITHIOPEROXO)THIOATE] ?
Result string: yes (1)

Query string: // inclusive: ALDH+ cells (%) at 15 µM at least 20%? input: S=C(SSC(=S)N1CCCC1)N1CCCC1 [BIS(PYRROLIDINYLTHIOCARBONYL)DISULFIDE]
Result string: yes (1)

Query string: Please tell me: is the compound S=C(SSC(=S)N1CCCCC1)N1CCCCC1 [BIS(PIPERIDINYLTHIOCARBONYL)DISULFIDE] at or over 20% in terms of ALDH+ cells (%) at 15 µM?
Result string: no (0)
